# Tested on: Plasmodium falciparum
# measurement protocol: Screen against P. falciparum Asexual Blood Stage (ABS), at 5uM
# Type: functional, Dd2
# condition description: tested at 5 uM
Out of some 65,000 compounds screened, about 2,100 (3.2%) showed an effect of 50% or more. The median lay at about -52%. This excerpt belongs to a sample that is enriched for strong results.
Rule: measured INHIBITION below -10% gets fulfilled; anything equal to or greater than -10% gets not fulfilled.

A selection of reference data follows.
molecule=c1cnc(NCc2noc3c2CN(CCN2CCCC2)CC3)nc1 qualitative_label=fulfilled
molecule=NC(=O)c1cccnc1N1CCN(c2ncnc3c2CCNC3)CC1 qualitative_label=fulfilled
molecule=CN1CCCN(c2nc3c(cnn3C(C)(C)C)c(=O)[nH]2)CC1 qualitative_label=fulfilled
molecule=CC(=O)N1CCN(C(=O)c2cc(C(C)C)no2)[C@H]2CS(=O)(=O)C[C@H]21 qualitative_label=fulfilled
molecule=c1nc2c(c(N3CCOCC3)n1)CCNCC2 qualitative_label=fulfilled
molecule="CCCC1CCCN(Cc2csc(-c3cnn(C)c3)n2)CC1 (configuration not stated)" qualitative_label="not fulfilled"
molecule="Cn1cc(C2CCCN2Cc2csc(-c3ccsc3)n2)cn1 (configuration not stated)" qualitative_label=fulfilled
molecule=c1cc(C2CCN(c3ncnc4c3CCNCC4)CC2)ccn1 qualitative_label="not fulfilled"
molecule=O=C(CN1CCOCC1)N(c1ccccc1)c1ccccc1 qualitative_label=fulfilled
molecule=COCCN1CCN(Cc2csc(-c3cnn(C)c3)n2)CC1 qualitative_label=fulfilled

Say whether its INHIBITION is strictly beneath -10%. Entry: "c1ccc2c(c1)CCN(c1nc(-c3ccncc3)nc3c1CCNC3)C2"
not fulfilled

Say whether its INHIBITION is strictly beneath -10%. Entry: Cn1cc(C2CCCN2Cc2csc(-c3ccccc3)n2)cn1 (configuration not stated)
not fulfilled

* * *

# Tested on: Plasmodium falciparum
# measurement protocol: Screen against P. falciparum Asexual Blood Stage (ABS), at 5uM
# Type: functional, Dd2
# condition description: tested at 5 uM
Hit rate of the full screen: of about 65,000 compounds, about 2,100 (3.2%) showed an effect of 50% or more. The median lay at about -52%. This excerpt belongs to a sample that is enriched for strong results.
result type: INHIBITION (%)
Numbers only, in %.

compound=CCCN1CCc2c(C(=O)N(C)Cc3ccccn3)nn(C)c2C1 experimental_system="Plasmodium falciparum" unit_annotation=% number=-23.7
compound="C=C(C)COc1cccc(C(=O)NC(C)c2nnn[nH]2)c1 (stereo unspecified)" experimental_system="Plasmodium falciparum" unit_annotation=% number=-109

For every item below, please supply its INHIBITION.
1. CC1c2ncc(CN3CCN(C)CC3)n2CCN1Cc1ccccn1 (stereo unspecified)
2. OC1CCN(Cc2c(C3CCCNC3)[nH]c3ncccc23)CC1 (stereo unspecified)
3. CN1CCN(c2cc(Sc3cccs3)nc(N)n2)CC1CCO (stereo unspecified)
4. c1cnn(CC2CN(Cc3csc(C4CCCCC4)n3)CCO2)c1 (stereo unspecified)

[-124, -65.3, -77.1, -70]

* * *

# Tested on: Plasmodium falciparum
# measurement protocol: Screen against P. falciparum Asexual Blood Stage (ABS), at 5uM
# Assay type: functional, Dd2
# condition description: tested at 5 uM
Screen size: about 65,000 compounds; about 2,100 (3.2%) showed an effect of 50% or more. The median lay at about -52%. The sample holds strong results, similar compounds and a random draw of the others, so the mix is not that of the screen.
Give INHIBITION for every item shown.
Answers are plain numbers, in %.

Answered cases to consult:
compound="Cc1ccc(F)c(S(=O)(=O)N2CCCC2c2ccncc2)c1 (stereo unspecified)" unit_annotation=% number=-73.9
compound=O=C(NCCN1CCC(c2cccs2)CC1)c1ccccc1C(F)(F)F unit_annotation=% number=34.2
compound=Cc1noc(C)c1-c1n[nH]c2c1CN(S(=O)(=O)c1cccs1)CC2 unit_annotation=% number=-24.2
compound=Cc1noc(C)c1-c1cccc(C2CCN(S(=O)(=O)N(C)C)CC2)n1 unit_annotation=% number=-81.4
compound=CCC[C@H]1CN(S(=O)(=O)c2cc(C)ccc2F)C[C@@H]1N unit_annotation=% number=52.5

For every item below, please supply its INHIBITION.
1. O=C(NCCN1CCC(c2cccs2)CC1)Nc1cccs1
2. CCC[C@H]1CN(S(=O)(=O)c2cc(C)ccc2C)C[C@@H]1N
3. CCSc1ccccc1C(=O)NCCN1CCC(c2cccs2)CC1
4. CC(=O)NCCN1CCC(c2cccs2)CC1
5. COCCN1CCC(NC(=O)NCC2(c3cccc(F)c3)CC2)C1 (stereo unspecified)
6. Cc1nc(Nc2nccs2)cc(C2CN(C(C)C)C2)n1

[64.2, 68.6, 30.9, 6.31, -77.2, 59.7]

* * *

# Test system: Plasmodium falciparum
# measurement protocol: Screen against P. falciparum Asexual Blood Stage (ABS), at 5uM
# Type: functional, Dd2
# condition description: tested at 5 uM
About 2,100 (3.2%) of roughly 65,000 compounds showed an effect of 50% or more. The median lay at about -52%. The sample as a whole holds a higher share of strong results than the screen did.
Rule: measured INHIBITION below -10% gets Condition met; anything equal to or greater than -10% gets Condition not met.

compound="Cc1ccccc1CN(C)CC(O)COCc1ccccc1Cl (centres undefined)" qualitative_label="Condition not met"
compound="CCc1nc(CN2CCCC(NCc3cccc(C(N)=O)c3)C2)no1 (centres undefined)" qualitative_label="Condition met"

Say whether its INHIBITION is strictly beneath -10%. Entry: "N[C@H]1CN(Cc2cnc(N3CCCC3)nc2)C[C@@H]1C1CC1"
Condition not met

Say whether its INHIBITION is strictly beneath -10%. Entry: "Cc1cc(N2C[C@H](C3CC3)[C@@H](N)C2)nc(N2CCCCC2)n1"
Condition not met

Say whether its INHIBITION is strictly beneath -10%. Entry: "Cn1ccnc1SCCNC1CCN(c2ncccn2)CC1"
Condition met

Say whether its INHIBITION is strictly beneath -10%. Entry: "CCc1cc(N2C[C@H](C3CC3)[C@@H](N)C2)nc(N2CCCC2)n1"
Condition not met

Say whether its INHIBITION is strictly beneath -10%. Entry: "Cc1nc[nH]c1-c1nccn1CCN1CCOC1=O"
Condition met

Say whether its INHIBITION is strictly beneath -10%. Entry: "Cc1ccc(CNC(=O)c2cc(Cn3ccnc3C(C)C)[nH]n2)o1"
Condition met

Say whether its INHIBITION is strictly beneath -10%. Entry: COc1ccccc1COCC(O)CN(C)Cc1cccc(Cl)c1 (centres undefined)
Condition met

Say whether its INHIBITION is strictly beneath -10%. Entry: OC1(CNCc2ccc(F)c(C(F)(F)F)c2)CCOC1 (centres undefined)
Condition not met

Say whether its INHIBITION is strictly beneath -10%. Entry: "CCCS(=O)(=O)N1C[C@@H]2CN(Cc3cnn(C)c3)CCO[C@@H]2C1"
Condition met

Say whether its INHIBITION is strictly beneath -10%. Entry: CCNC(=O)NC(=O)CN1CCC(c2cccc(F)c2)C1 (centres undefined)
Condition not met

Say whether its INHIBITION is strictly beneath -10%. Entry: O=C1N(Cc2cccc(F)c2)CCC12CCCN(c1ncc(F)cn1)C2 (centres undefined)
Condition met

Say whether its INHIBITION is strictly beneath -10%. Entry: CC(C)C(=O)N1CCC2(CCN2CC2CC2)C1 (centres undefined)
Condition met

Say whether its INHIBITION is strictly beneath -10%. Entry: "COCCN1CCO[C@@H]2CN(C(=O)Cc3ccc(F)cc3)CC[C@@H]2C1"
Condition not met

Say whether its INHIBITION is strictly beneath -10%. Entry: "OC[C@H]1CN(Cc2c(Cl)cncc2Cl)C[C@H]1CN1CCCCCC1"
Condition not met

Say whether its INHIBITION is strictly beneath -10%. Entry: "OC[C@H]1CN(Cc2c(Cl)cccc2Cl)C[C@H]1CN1CCCCC1"
Condition not met

Say whether its INHIBITION is strictly beneath -10%. Entry: "CCn1nc2c(cc1=O)CN(Cc1nc(-c3cccs3)no1)CC2"
Condition not met

* * *

# Test system: Plasmodium falciparum
# measurement protocol: Screen against P. falciparum Asexual Blood Stage (ABS), at 5uM
# Format: functional, Dd2
# condition description: tested at 5 uM
Screen size: about 65,000 compounds; about 2,100 (3.2%) showed an effect of 50% or more. The median lay at about -52%. This is one part of a sample in which strong results are shown more often than they occur.
The label depends only on INHIBITION: class 1 if it is at least 30%, class 0 if it is smaller.

Decide: is the reported value of INHIBITION for CCc1nc(C2CCCN2CCS(=O)(=O)c2ccccc2)no1 (stereo unspecified) equal to or greater than 30%?
class 1

Decide: is the reported value of INHIBITION for CN(C)C(=O)CC1CC2(CCN(Cc3ccco3)CC2)c2ccccc21 (stereo unspecified) equal to or greater than 30%?
class 0

Decide: is the reported value of INHIBITION for "CCn1ncc2c(C(F)(F)F)cc(-c3ccn(C)n3)nc21" equal to or greater than 30%?
class 0

Decide: is the reported value of INHIBITION for "CCC(CC)C(=O)NCCC(=O)N1CCN(c2ccccn2)CC1" equal to or greater than 30%?
class 0

Decide: is the reported value of INHIBITION for "CN(C)C[C@H]1OC[C@@H]2CCN(S(=O)(=O)c3ccc(F)cc3)C[C@@H]21" equal to or greater than 30%?
class 1

// provenance: ChEMBL document CHEMBL4513216
